EXPERIMENTAL_PROTOCOL: MultiTox-Fluor Cytotoxicity Assay - LYMP1-002 - Live Cells (AID 955);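 further: cells exposed to compound for 16 hours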
CONDITION_SUMMARY: LYMP1-002 lymphoblastoid live-cell protease fluorescence viability; series mostly up to 46.1 µM
Inconclusive results are not listed. Active and inactive are the calls of the source. The call rests on the fitted dose curve; in most records, active means well fitted cell-killing curve with a large enough effect; inconclusive means small, poorly fitted or top-dose-only effect, or effect the other way; inactive means flat fitted curve, though single readings scatter.
Answer with one of the outcomes YES (active), NO (inactive)

// return assay outcome for O=C(Oc1ccccc1)c1ccccc1O
NO

Now the same for CCCC(=O)c1cc(O)c(O)cc1O
NO

Now the same for CC(C)C(C)(C)C(C)(C)C(C)(C)S
NO

Now the same for CC(=O)OC/C=C(C)/C=C/C=C(C)/C=C/C1=C(C)CCCC1(C)C
NO

Now the same for c1ccc2occc2c1
NO

Now the same for Cc1ccc(O)cc1
NO

Now the same for CCCCCCCCCCCCCCCC[n+]1ccccc1
YES

Now the same for OCc1c[nH]c2ccccc12
NO

###

TESTED_SYSTEM: Thyrotropin-releasing hormone receptor (Homo sapiens) (UniProt P34981)
Sequence (P34981 whole entry, looked up): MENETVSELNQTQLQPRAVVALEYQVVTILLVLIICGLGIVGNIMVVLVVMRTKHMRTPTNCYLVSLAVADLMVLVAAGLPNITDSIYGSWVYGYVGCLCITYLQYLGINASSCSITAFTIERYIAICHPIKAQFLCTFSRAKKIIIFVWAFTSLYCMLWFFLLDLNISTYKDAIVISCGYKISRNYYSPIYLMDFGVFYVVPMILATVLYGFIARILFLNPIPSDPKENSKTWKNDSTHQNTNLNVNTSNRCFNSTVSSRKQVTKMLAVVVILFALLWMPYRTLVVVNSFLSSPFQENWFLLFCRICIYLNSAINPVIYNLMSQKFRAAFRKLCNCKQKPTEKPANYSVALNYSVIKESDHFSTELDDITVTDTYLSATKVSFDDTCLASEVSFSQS
EXPERIMENTAL_PROTOCOL: qHTS for Small Molecule Agonists and Allosteric Enhancers of Human TRH Receptor: Validation Screen for Agonists (AID 493127);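 further: intracellular calcium rise by fluo-8 fluorescence before TRH EC20 addition; 0% is about no effect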
CONDITION_SUMMARY: TRH receptor agonist cell assay; at 2 µM; stronger effect = higher value
MEASURED_ATTRIBUTE: activation (%)
Use % as the unit, but write only the number.

Fill in the blank: the reported activation of NC(N)=NCCCCN=C(N)N is ____.
0.938

Now the same for Brc1ccc([C@H]2CN3CCSC3=N2)cc1
-2.94

Now the same for O=C1NC(c2cccc([N+](=O)[O-])c2)=CCN1c1ccccc1O
1.25

Now the same for COc1ccccc1N1CCN(CCN2C(=O)CC3(CCCC3)CC2=O)CC1
2.31

Now the same for CN(C)c1cc2c(Nc3ccc4c(cnn4Cc4ccccc4)c3)ncnc2cn1
2.12

Now the same for CC(C)N(CCC(=O)c1ccc2ccccc2c1)Cc1ccccc1
3.12

Now the same for O=[N+]([O-])c1ccc(-c2nc(-c3ccc(F)cc3)c(-c3ccncc3)[nH]2)cc1
4.88

###

System: MKL-2
EXPERIMENTAL_PROTOCOL: qHTS assay to identify novel small-molecules to repurpose for Merkel cell carcinoma treatment (AID 1296009); further: on the % scale 0 is the no-effect control and ±100 the full control effect; nearly all actives have a fitted effect of over 60% in size
CONDITION_SUMMARY: MCC and control cell lines, CellTiter-Glo viability, 72 h; series mostly up to 46 µM
Inconclusive results are not listed. The source made the active and inactive calls. The call rests on the fitted dose curve; in most records, active means well fitted inhibition curve with a large enough effect; inconclusive means small, poorly fitted or top-dose-only effect; inactive means flat fitted curve, though single readings scatter.
MEASURED_ATTRIBUTE: outcome

* CCCC(=O)O[C@]1(C(=O)COC(=O)CC)CC[C@H]2[C@@H]3CCC4=CC(=O)CC[C@]4(C)[C@H]3[C@@H](O)C[C@@]21C | inactive
* CSCC[C@H](NC(=O)[C@H](Cc1c[nH]c2ccccc12)NC(=O)CCNC(=O)OC(C)(C)C)C(=O)N[C@@H](CC(=O)O)C(=O)N[C@@H](Cc1ccccc1)C(N)=O | inactive
* O=C(NN1CCCC1)NS(=O)(=O)c1ccc(Cl)cc1 | inactive
* O=C(CS(=O)Cc1ccco1)NC/C=C\COc1cc(CN2CCCCC2)ccn1 (centres undefined) | inactive

###

Tested on: NIH3T3
EXPERIMENTAL_PROTOCOL: Cytotoxic Profiling of Annotated Libraries Using Quantitative High-Throughput Screening (AID 1296008); further: nearly all actives have a fitted effect of over 60% in size
CONDITION_SUMMARY: Five cell lines viability, CellTiter-Glo ATP luminescence, 48-72 h
Results filed as inconclusive are left out. Calls of active or inactive are those of the source. Calls follow the shape of the dose curve; as a rule, active = well fitted inhibition curve with a large enough effect; inconclusive = small, poorly fitted or top-dose-only effect; inactive = flat fitted curve, though single readings scatter.
Answer with one of the outcomes True for active, False for inactive

// return assay outcome for N#CSCC(=O)O
False

Now the same for CCOC(=O)OCC/C(SC(=O)OCC)=C(\C)N(C=O)Cc1cnc(C)nc1N
False

Now the same for CO[C@@H]1[C@@H](OC)[C@H](C)[C@@](O)(CC(=O)O)O[C@H]1[C@H](C)[C@H]1O[C@@]2(CC[C@@](C)([C@H]3CC[C@@](C)([C@@H]4O[C@@H]([C@H]5O[C@](C)(O)[C@H](C)C[C@@H]5C)C[C@@H]4OC4C[C@H](OC)[C@@H](OC)[C@H](C)O4)O3)O2)C[C@H](O)[C@H]1C (stereo not given in full)
True

Now the same for CCC(CN)=C(c1ccccc1)c1ccccc1
False

Now the same for CC(=O)N(CC(O)CO)c1c(I)c(C(=O)NCCO)c(I)c(C(=O)NCC(O)CO)c1I (stereo not given)
False

Now the same for Cc1cc2nc3ccc(=[N+](C)C)cc-3sc2cc1N
True

Now the same for COCCc1ccccn1
False

Now the same for CCN1CCN(c2cc(-c3ccc(F)cc3)c3c(n2)CCCCCC3)CC1
False

Now the same for COc1ccc2c(c1)CCCC2=O
False

Now the same for CCCCCOc1ccc(C2SC(=O)NC2=O)cc1OCC (stereo not given)
False
